# System: M14 melanoma
# run.description: NCI tumour cell line growth inhibition, 48 h
# TGI annotations
// note: answer is a bare numeric in µM

Prompt: Could you share which TGI value was measured for "Cc1nn2c(=O)c([N+](=O)[O-])c(/C=C/c3ccc(F)cc3)nc2s1" ?
Completion: 16.4

Prompt: Next: CCOC(=O)N1c2ccccc2C(C)=CC(C)C1C (stereo not given)
Completion: 80

Prompt: Consider next the molecule CC(C)=C[C@@H]1C[C@H](C)[C@H]2CC[C@H](C)c3c(O)c(OC4OC(C)C(O)C(O)C4O)c(C)c1c32 (stereo not given in full) in the same way.
Completion: 24.9

Prompt: Would you mind doing "O=C(/C=C/c1ccc(O)c(O)c1)N1CCN(c2ccc(Cl)cc2)CC1" as well?
Completion: 47.1

Prompt: // query: "CCN(CC)c1c(C(C)(C)C)c(=O)n2ccsc2c1OC(C)=O"
Completion: 31.2

Prompt: Quick one: COc1cccc(C2CC(=O)Nc3c2c(C)nn3-c2nc3ccccc3[nH]2)c1OC (stereo not given)
Completion: 30.3

Prompt: Same thing, different molecule: "Cc1nc2ccc(NCCN(C)C)c3c(=O)c4ccccc4n1c23"
Completion: 16.4

Prompt: Another molecule to check: CC1OC(OC2C(O)CC(OC3C(O)CC(OC4CCC5(C)C(CCC6C5CCC5(C)C(C7=CC(=O)OC7)C(O)CC65O)C4)OC3C)OC2C)CC(O)C1O (stereo not given)
Completion: 1.99

Prompt: Also need "[O]=[Sn]([CH]1CCCCC1)[CH]1CCCCC1" , thanks.
Completion: 0.677

Prompt: Moving on to CC1[C@@]2(CCC(C)(C)O2)O[C@@H]2C=C3C4CCC5Cc6nc7c(nc6C[C@@]5(C)C4C[C@H](O)[C@@]3(C)[C@]12O)CC1CCC2C3=C[C@H]4O[C@@]5(O[C@@](C)(CO)C[C@@H]5O)C(C)[C@@]4(O)[C@]3(C)[C@@H](O)CC2[C@]1(C)C7 (stereo not given in full)
Completion: 0.122

Prompt: Can you check "S=c1ssnc1-c1cc2ccccc2o1" next?
Completion: 60.7

Prompt: Try this molecule too: "O=[N+]([O-])c1cccc(/C=N/Nc2ccc3ccccc3n2)c1O"
Completion: 5.32

Prompt: What do you get for "CCN(CC)c1ccc(/C=N/NC(=O)Cc2ccc(Nc3ccnc(C(F)(F)F)c3)cc2)c(O)c1" ?
Completion: 5.93

Prompt: Can you check "NCCCN(CCCCN(CCCN)CCCc1ccccc1)CCCc1ccccc1" next?
Completion: 3.57

Prompt: Another molecule to check: "CCn1cc(C(=O)O)c(=O)c2cc(F)c(N3CCN(S(=O)(=O)c4ccc(Cl)cc4Cl)CC3)cc21"
Completion: 10.8

Prompt: Follow-up item: "CC(=O)Oc1ccc2cc(Oc3cc(Cl)c(Cl)cc3Cl)c(=O)oc2c1"
Completion: 35.2

Prompt: What about this molecule? "c1ccc(C(Oc2noc3ccccc23)c2ccccc2)cc1"
Completion: 63.5

The reported measurements were obtained from PubChem BioAssay (NCI).
